Measured 假病毒中和能力(IC50) by item
molecular target: SARS-CoV-2 S蛋白 (Omicron变异株, 假病毒) (SARS-CoV-2 Omicron variant, UniProt P0DTC2 14-1273); experiment: cell-based or functional assay
# number only, unit µg/mL dropped from output

Below, each entry is followed by its recorded 假病毒中和能力(IC50) result.
binder	假病毒中和能力(IC50) / µg/mL
LHD2 (antibody, V domains shown) VH: QMQLVQSGPEVKKPGTSLKVSCKASGFAFTTSAVQWVRQARGQPLEWIGWIAVGSGKADYAQRFQERVTISRDMSTTTAYMELSSLSSEDTAVYFCAAPFCTRTTCLDGFDIWGQGTMVTVSS VL: EIVLTQSPVTLSLSPGERATLSCRAGQSVSRNYLGWYQQKPGQAPRLLIYAASSRATGIPDRFSGRGSGTDFTLTISRLEPEDFAVYYCQQYGTSPWTFGQGTKVEIKV	0.045
LHD7 (antibody, V domains shown) VH: QMQLVQSGPEVKKPGTSVKVSCKASGFTFITAAVQWVRQARGQRLEWIGWIAVGSGKTDYAQKFQERVTITRDISTSTAYMEVKSLRSEDTALYYCAAPQCNRTTCLDGFDIWGQGTKVIVSS VL: EIVLTQSPVTLSLSPGERATLSCRASQSVSRSYLGWYQQKPGQAPRLLIYGASSRATGIPDRFRGSGSGTDFTLTISRLEPEDFAVYYCQQYGTSPWTFGQGTKVEIKV	0.025
SWB8 (antibody, V domains shown) VH: EVQLVESGGGLVQPGGSLRLSCAASGFTIRSYEMNWVRQAPGKGLEWVSYISSSGTTIYYADSVKGRFTISRDTAKNSLYLQMNSLRAEDTAVYYCAREGDYPSAEYFHHWGQGTLVTVSS VL: DIVMTQSSVSLAVSLGERATINCKSSQSVLYSSTNRSYLAWYQQKPGQSPKLLIYWASTRESGVPDRFSGSGSGTDFTLTISSLQAEDVAVYYCQQYYSTRRTFGQGTKLEIKR	0.032

*Q* Complete the entry with 假病毒中和能力(IC50) for LHC11 (antibody, V domains shown) VH: EVQLVESGGGLIQPGGSLKLSCAATEIIVSRNYMTWVRQAPGKGLEWVSIIYPGGSSFYAESVKGRFTISRDEPKNTLFLQMNSLRVEDTAVYYCARGYGDYYFDFWGQGTLVTVSS VL: EIVLTQSPVTLSLSPGERATLSCRASQSVSSSYLAWYQQKPGQAPRLLIYGASSRATGIPDRFSGSGSGTDFTLTISRLEPEDFAVYYCQQWLTFGGGTKVEIKV
*A* 0.024
